Here, each record is paired with measured Kd data.
SUBJECT_OF_TEST: T1, P672_RHIPU (Rhipicephalus pulchellus, UniProt L7MC74 22-125)
T1 sequence: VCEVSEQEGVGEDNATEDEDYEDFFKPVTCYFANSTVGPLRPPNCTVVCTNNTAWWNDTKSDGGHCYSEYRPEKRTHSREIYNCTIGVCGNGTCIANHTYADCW
PROTOCOL_DESCRIPTION: BLI;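 also: biolayer interferometry on an Octet system: chemokines at several doses tested against tick chemokine-binding proteins, association, equilibrium and dissociation curves fitted to derive Kd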
Express the reported value numerically, then name its unit.

Below, 3 binders whose answers are already recorded.
{"BINDER": "CCL14_HUMAN (ligand) TESSSRGPYHPSECCFTYTTYKIPRQRIMDYYETNSQCSKPGIVFITKRGHSVCTNPSDKWVQDYIKDMKEN", "READOUT": "Kd", "OBSERVED": "5.5 nM"}
{"BINDER": "CCL3L1_HUMAN (ligand) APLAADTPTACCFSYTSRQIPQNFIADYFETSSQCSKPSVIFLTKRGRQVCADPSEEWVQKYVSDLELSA", "READOUT": "Kd", "OBSERVED": "2.7 nM"}
{"BINDER": "CCL8_HUMAN (ligand, UniProt P80075 24-99, looked up) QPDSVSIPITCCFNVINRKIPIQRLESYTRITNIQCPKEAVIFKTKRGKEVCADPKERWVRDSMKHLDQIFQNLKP", "READOUT": "Kd", "OBSERVED": "3.7 nM"}

Ask | Data request, read-out Kd, for CCL15_HUMAN (ligand) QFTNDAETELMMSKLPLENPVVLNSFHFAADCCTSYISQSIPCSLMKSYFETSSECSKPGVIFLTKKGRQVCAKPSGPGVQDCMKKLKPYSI
Reply | 32 nM

Ask | How about this binder: CCL16_HUMAN (ligand) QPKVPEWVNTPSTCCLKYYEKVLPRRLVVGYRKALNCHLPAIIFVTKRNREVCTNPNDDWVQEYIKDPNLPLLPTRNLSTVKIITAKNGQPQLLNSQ
Reply | 3.3 nM

Ask | How about this binder: CCL3_HUMAN (ligand) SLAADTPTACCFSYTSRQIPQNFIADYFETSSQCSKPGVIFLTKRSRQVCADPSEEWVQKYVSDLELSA
Reply | 2.6 nM
